assay: In Vitro GIRK Thallium Flux Assay (2.5 minutes): Human Embryonic Kidney (HEK-293) cell lines co-expressing rat mGlu receptors 2, 3, 4, 6, 7 or 8 and G protein-coupled inwardly-rectifying potassium (GIRK) channels_ENREF_54 were grown in Growth Media containing 45% DMEM, 45% F-12, 10% FBS, 20 mM HEPES, 2 mM L-glutamine, antibiotic/antimycotic, non-essential amino acids, 700 μg/ml G418, and 0.6 μg/ml puromycin at 37° C. in the presence of 5% CO2. All cell culture reagents were purchased from Invitrogen Corp. (Carlsbad, Calif.) unless otherwise noted. Compound activity at the group II (mGlu2 and mGlu3) mGlus was assessed using thallium flux through GIRK channels. Briefly, cells were plated into 384-well, black-walled, clear-bottomed poly-D-lysine-coated plates at a density of 15,000 cells/20 μL/well in DMEM containing 10% dialyzed FBS, 20 mM HEPES, and 100 units/mL penicillin/streptomycin (assay media). Plated cells were incubated overnight at 37° C. in the presence of 5% CO2. The following day, the medium was exchanged from the cells to assay buffer [Hanks' balanced salt solution (Invitrogen) containing 20 mM HEPES, pH 7.3] using an ELX405 microplate washer (BioTek), leaving 20 μL/well, followed by the addition of 20 μL/well FluoZin2-AM (330 nM final concentration) indicator dye (Invitrogen; prepared as a stock in DMSO and mixed in a 1:1 ratio with Pluronic acid F-127) in assay buffer. Cells were incubated for 1 h at room temperature, and the dye exchanged to assay buffer using an ELX405, leaving 20 μL/well. Test compounds were diluted to 2 times their final desired concentration in assay buffer (0.3% DMSO final concentration). Agonists were diluted in thallium buffer [125 mM sodium bicarbonate (added fresh the morning of the experiment), 1 mM magnesium sulfate, 1.8 mM calcium sulfate, 5 mM glucose, 12 mM thallium sulfate, and 10 mM HEPES, pH 7.3] at 5 times the final concentration to be assayed. Cell plates and compound plates were loaded onto a kinetic imaging plate reader (FDSS 6000 or 7000; Hamamatsu Corporation, Bridgewater, N.J.). Appropriate baseline readings were taken (10 images at 1 Hz; excitation, 470±20 nm; emission, 540±30 nm) and test compounds were added in a 20 μL volume and incubated for either 2.5 min or 60 min as indicated before the addition of 10 μL of thallium buffer with or without agonist. After the addition of agonist, data were collected for approximately an additional 2.5 min. Data were analyzed using Excel (Microsoft Corp, Redmond, Wash.). The slope of the fluorescence increase beginning 5 s after thallium/agonist addition and ending 15 s after thallium/agonist addition was calculated, corrected to vehicle and maximal agonist control slope values, and plotted in using either XLfit (ID Business Solutions Ltd) or Prism software (GraphPad Software, San Diego, Calif.) to generate concentration-response curves. Potencies were calculated from fits using a four-point parameter logistic equation. For concentration-response curve experiments, compounds were serially diluted 1:3 into 10 point concentration response curves and were transferred to daughter plates using an Echo acoustic plate reformatter (Labcyte, Sunnyvale, Calif.). Test compounds were applied and followed by EC80 concentrations of glutamate.; conditions: HEK293, 2.5 min

COMPOUND STRUCTURE STRING: FC(F)(F)c1ccc(-c2nc(-c3cccc(-c4ccccc4)c3)nn2-c2ccccc2)cn1
EC50: 5.56 µM
//
COMPOUND STRUCTURE STRING: Clc1ccccc1-c1cccc(-c2csc(-c3ccccc3)n2)c1
EC50: > 10 µM
//
COMPOUND STRUCTURE STRING: c1ccc(-c2cccc(-c3csc(-c4ccc5ccccc5c4)n3)c2)cc1
EC50: > 30 µM
//
COMPOUND STRUCTURE STRING: Clc1ccc(-c2nc(-c3cccc(-c4ccccc4)c3)cs2)cn1
EC50: > 10 µM
//
COMPOUND STRUCTURE STRING: c1ccc(Cn2nc(-c3cccc(-c4ccccc4)c3)nc2-c2ccccc2)cc1
EC50: 3.9 µM
//
COMPOUND STRUCTURE STRING: c1ccc(-c2cccc(-c3cc(-c4ccccc4)on3)c2)cc1
EC50: > 10 µM
//
COMPOUND STRUCTURE STRING: c1ccc(-c2cccc(-c3noc(-c4ccccc4)n3)c2)cc1
EC50: > 10 µM
//
COMPOUND STRUCTURE STRING: Fc1cccc(-c2cccc(-c3csc(-c4ccccc4)n3)c2)c1
EC50: > 10 µM

Data provenance: ChEMBL document CHEMBL5727031
